Tested on: SNU-16 cells
TEST SUMMARY: Cell proliferation, 5-day CellTiter-Glo
Type: cell-based
MEASUREMENT SETUP: Homo sapiens, 120 h; SNU-16, 5 days; read-out: 5-Day CTG EC50
pEC50: −log10 of the molar value.

{"SMILES RECORD": "C=CC(=O)N1C[C@@H](n2nc(C#Cc3c(F)cc4c(ncn4C4CC4)c3F)c(C(N)=O)c2NC)C[C@@H]1COC", "TARGET UNDER TEST": "SNU-16 cells", "pEC50": 8.41}

* * *

TEST SUMMARY: Exposure in mice bearing RT-112 xenografts
MEASUREMENT SETUP: mouse, in vivo, PO QD 2-15 mg/kg, 24-hour period following the last dose

{"SMILES RECORD": "C=CC(=O)N1C[C@@H](n2nc(C#Cc3c(F)cc4c(ncn4C4CC4)c3F)c(C(N)=O)c2NC)C[C@@H]1COC", "AUC(0-t)": "1320 to 9760 ng·h/mL"}
